- system-under-test: Trace amine-associated receptor 1 (Homo sapiens) (UniProt Q96RJ0)
- Sequence (Q96RJ0 whole entry, looked up): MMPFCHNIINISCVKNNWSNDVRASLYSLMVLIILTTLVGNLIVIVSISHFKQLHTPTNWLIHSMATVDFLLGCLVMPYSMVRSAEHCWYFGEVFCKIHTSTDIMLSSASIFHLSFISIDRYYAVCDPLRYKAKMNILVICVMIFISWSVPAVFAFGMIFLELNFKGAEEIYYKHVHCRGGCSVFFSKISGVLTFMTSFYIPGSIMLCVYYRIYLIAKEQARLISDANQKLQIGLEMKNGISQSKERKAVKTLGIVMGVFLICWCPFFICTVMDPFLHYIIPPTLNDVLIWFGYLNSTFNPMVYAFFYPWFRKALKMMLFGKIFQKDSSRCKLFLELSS
- assay-name: activators of TAAR1 calcium mobilization – Fluo-8 calcium fluorescence, CHO RD-HGA16 cells, primary screen (AID 624467)
- details: CHO RD-HGA16 TAAR1, Fluo-8 calcium fluorescence; at 3 µM; hits give high values; vehicle wells 0%, saturating PEA agonist 100%
Out of some 360,000 compounds screened, about 3,600 (1%) were called active. What follows is part of a selection rich in actives, with near analogues and random picks from the rest.
So basically every entry gets a class from its activation, ranges being low: < 2%; mid: ≥ 2% and < 10%; high: ≥ 10%

{"columns": ["molecule", "system-under-test", "category"],
 "data": [
  ["O=C(N[C@H](C(=O)N1CCC[C@H]1C(=O)NCCc1ccccc1Cl)c1ccccc1)c1ccccc1", "Trace amine-associated receptor 1 (Homo sapiens) (UniProt Q96RJ0)", "high"],
  ["CC(=O)N(CC(O)CO)c1c(I)c(C(=O)NCC(O)CO)c(I)c(C(=O)NCC(O)CO)c1I (stereo not given)", "Trace amine-associated receptor 1 (Homo sapiens) (UniProt Q96RJ0)", "low"],
  ["CC(C)(C)n1ncc2c(=O)n(Cc3c(Cl)cccc3Br)cnc21", "Trace amine-associated receptor 1 (Homo sapiens) (UniProt Q96RJ0)", "high"],
  ["NS(=O)(=O)c1ccc(NC(=S)Nc2ccc(Br)c(Cl)c2)cc1", "Trace amine-associated receptor 1 (Homo sapiens) (UniProt Q96RJ0)", "high"],
  ["C[C@H]1CN([C@@H](C)CO)C(=O)CCCn2nncc2CO[C@@H]1CN(C)C(=O)Nc1ccc(N2CCN(C)CC2)cc1", "Trace amine-associated receptor 1 (Homo sapiens) (UniProt Q96RJ0)", "low"],
  ["NS(=O)(=O)c1ccc(NC(=S)N2CCCC2)cc1", "Trace amine-associated receptor 1 (Homo sapiens) (UniProt Q96RJ0)", "low"],
  ["CC(C)(C)n1ncc2c(=O)n(Cc3ccc(Cl)cc3)cnc21", "Trace amine-associated receptor 1 (Homo sapiens) (UniProt Q96RJ0)", "high"],
  ["COc1ccc(NC(=S)Nc2ccc(S(N)(=O)=O)cc2)c(C)c1", "Trace amine-associated receptor 1 (Homo sapiens) (UniProt Q96RJ0)", "mid"],
  ["O=C(C(=O)N1CCC(CNS(=O)(=O)Cc2ccccc2)CC1)c1cc2ccccc2o1", "Trace amine-associated receptor 1 (Homo sapiens) (UniProt Q96RJ0)", "mid"],
  ["Cn1cnc2c1c(=O)n(Cc1c(Cl)cccc1Cl)c(=O)n2C", "Trace amine-associated receptor 1 (Homo sapiens) (UniProt Q96RJ0)", "low"]
]}
